Data origin: PubChem BioAssay (NCI)

Below, each entry is listed with its recorded TGI.
system: MOLT-4 leukemia; assay: NCI tumour cell line growth inhibition, 48 h

# compound, TGI
records = [
    ("CCOC(=O)c1cc(C2(OC)CCN(Cc3ccccc3)C2=O)c(-c2cc(C)no2)[nH]1 (centres undefined)", "> 100 µM"),
    ("CCCC[Si](CCCC)(CCCC)O[C@@H](/C=C/C(=O)OCC)[C@H](Cc1ccccc1)O[Si](CCCC)(CCCC)CCCC", "> 100 µM"),
    ("Nc1nc(Cl)cc(NCC2(CO)CCC(OCc3ccccc3)C2)n1 (centres undefined)", "34.3 µM"),
    ("CC(C)(C)C1=NN=C2c3ccccc3C(=O)C21 (centres undefined)", "85 µM"),
    ("Cc1ccccc1Nc1cn(CCOc2ccccc2)c(=O)n(CCOc2ccccc2)c1=O", "> 100 µM"),
    ("COC(=O)C1CCc2nnc(-c3cccnc3)n21 (centres undefined)", "> 100 µM"),
    ("c1ccc(-c2cc(-c3cc(-c4ccccc4)no3)on2)cc1", "81.3 µM"),
    ("COc1ccc(/C=C2\\CCCC3=C2N=C2SC=NN2C3c2ccc(OC)c(OC)c2)cc1OC (centres undefined)", "> 100 µM"),
    ("CC(=O)O[C@H]1C(=O)[C@@]2(C)[C@H]([C@H](OC(=O)c3ccncc3)[C@]3(O)C[C@H](OC(=O)[C@H](O)[C@@H](NC(=O)c4ccccc4)c4ccccc4)C(C)=C1C3(C)C)[C@]1(OC(C)=O)CO[C@@H]1C[C@@H]2O", "> 25 µM"),
]
